Recorded EC50, CRE-luciferase assay, one value per entry.
- EXPERIMENTAL SYSTEM: T1, human amylin receptor (AMY3) on CHO-K1/Ga15/AMY3 cells (human, UniProt P30988 25-474; O60896 24-148)
- T1 sequence (looked up) 1: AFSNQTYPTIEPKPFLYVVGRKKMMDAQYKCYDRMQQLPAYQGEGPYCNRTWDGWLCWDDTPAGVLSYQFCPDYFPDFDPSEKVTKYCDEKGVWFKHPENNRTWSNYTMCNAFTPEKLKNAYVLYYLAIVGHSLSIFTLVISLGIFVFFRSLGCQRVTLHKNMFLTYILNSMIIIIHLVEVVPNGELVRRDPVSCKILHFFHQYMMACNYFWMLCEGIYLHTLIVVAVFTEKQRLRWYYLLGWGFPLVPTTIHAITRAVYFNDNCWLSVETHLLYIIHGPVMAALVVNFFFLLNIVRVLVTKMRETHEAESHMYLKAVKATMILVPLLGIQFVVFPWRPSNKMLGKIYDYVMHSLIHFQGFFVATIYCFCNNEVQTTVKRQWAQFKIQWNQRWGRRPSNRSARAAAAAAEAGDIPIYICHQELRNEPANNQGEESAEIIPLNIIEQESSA
- T1 sequence (looked up) 2: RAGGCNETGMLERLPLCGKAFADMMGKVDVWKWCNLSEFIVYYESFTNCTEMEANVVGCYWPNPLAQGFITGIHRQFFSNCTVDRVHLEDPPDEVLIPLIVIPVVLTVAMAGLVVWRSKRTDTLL
- TEST PROTOCOL: cell-based or functional assay
*1 amine or outer side, *2 acyl side, *3 side chain or, on linkers, in order; H or OH if unused. Bridges are numbered along the chain shown (N, C = ends). Primed or numbered codes have the meaning given here. Where no end group is shown, it is not given here. Side-chain parts run from the residue outwards. [ ]: non-standard residue; d: D form. The star is where a group is joined. C20 diacid = O=C(O)CCCCCCCCCCCCCCCCCCC(=O)*; C18 diacid = O=C(O)CCCCCCCCCCCCCCCCC(=O)*; γGlu = O=C(O)[C@H](CCC(=O)[*:2])N[*:1]; βAsp = O=C(O)[C@H](CC(=O)[*:2])N[*:1]; Hyp = O=C(O)[C@@H]1C[C@@H](O)CN1; Trx′ = not defined here; AEEA = NCCOCCOCC(=O)O
OBSERVED PROPERTY: EC50, CRE-luciferase assay (nM)

{"BINDER": "RCNTATCATQRLAEFLRHSSNNK([AEEA-AEEA-γGlu-C20 diacid])GPILPPTNVGSNTP-NH2 (disulfide 2-7 (inferred)) [PD003]", "ASSAY VALUE": 0.14}
{"BINDER": "RCNTATCATQRLAEFLRHSSNNLK([AEEA-AEEA-γGlu-C20 diacid])PILPPTNVGSNTP-NH2 (disulfide 2-7 (inferred)) [PD004]", "ASSAY VALUE": 0.102}
{"BINDER": "{C20 diacid-γGlu}-KGGGGRCNTATCATQRLADFLRHSSNNLRPILPPTNVGSNTP-NH2 (disulfide 7-12 (inferred)) [PD198]", "ASSAY VALUE": 0.029}
{"BINDER": "RCNTATCATQRLAEFLRHSSK([AEEA-AEEA-γGlu-C20 diacid])NLGPILPPTNVGSNTP-NH2 (disulfide 2-7 (inferred)) [PD001]", "ASSAY VALUE": 0.042}
{"BINDER": "{C20 diacid-AEEA-AEEA-Trx′}-KCNTATCATQRLADFLRHSSNNLKPILPPTNVGSNT[Hyp]-NH2 (disulfide 2-7 (inferred); reading uncertain) [PD178]", "ASSAY VALUE": 0.017}
{"BINDER": "{C20 diacid-βAsp-AEEA-AEEA}-KCNTATCATQRLADFLRHSSNNLKPILPPTNVGSNTP-NH2 (disulfide 2-7 (inferred)) [PD195]", "ASSAY VALUE": 0.025}
{"BINDER": "{C20 diacid-γGlu}-KCNTATCATQRLADFLRHSSNNLHPILPPTNVGSNT[Hyp]-NH2 (disulfide 2-7 (inferred)) [PD159]", "ASSAY VALUE": 0.037}
{"BINDER": "{C20 diacid-γGlu}-KCNTATCATQRLADFLRHSSNNLPPILPPTNVGSNTP-NH2 (disulfide 2-7 (inferred)) [PD163]", "ASSAY VALUE": 0.084}
{"BINDER": "RCNTATCATQRLADFLRHSSK([AEEA-γGlu-C20 diacid])NLGPILPPTNVGSNT[Hyp]-NH2 (disulfide 2-7 (inferred)) [PD114]", "ASSAY VALUE": 0.029}
{"BINDER": "RCNTATCATQRLADFLRHSSNK([AEEA-γGlu-C18 diacid])LGPILPPTNVGSNT[Hyp]-NH2 (disulfide 2-7 (inferred)) [PD113]", "ASSAY VALUE": 0.017}
{"BINDER": "RCNTATCATQRLADFLRHSSNNLGK([AEEA-AEEA-γGlu-C20 diacid])ILPPTNVGSNT[Hyp]-NH2 (disulfide 2-7 (inferred)) [PD103]", "ASSAY VALUE": 0.033}
{"BINDER": "RCNTATCATQRLAEFLRHSSNNLK([γGlu-C20 diacid])PILPPTNVGSNTP-NH2 (disulfide 2-7 (inferred)) [PD047]", "ASSAY VALUE": 0.073}
{"BINDER": "K([γGlu-C20 diacid])CNTATCATQRLAEFLRHSSNNFGPILPPTNVGSNTP-NH2 (ends and bridges not checked) [PD066]", "ASSAY VALUE": 0.044}
{"BINDER": "RCNTATCATQRLADFLRHSSNNK([γGlu-C20 diacid])GPILPPTNVGSNT[Hyp]-NH2 (disulfide 2-7 (inferred)) [PD082]", "ASSAY VALUE": 0.038}
{"BINDER": "{C18 diacid-γGlu-AEEA}-KCNTATCATQRLADFLRHSSNNLGPILPPTNVGSNT[Hyp]-NH2 (disulfide 2-7 (inferred)) [PD125]", "ASSAY VALUE": 0.01}
{"BINDER": "RCNTATCATQRLADFLRHK([AEEA-AEEA-γGlu-C20 diacid])SNNLGPILPPTNVGSNT[Hyp]-NH2 (disulfide 2-7 (inferred)) [PD099]", "ASSAY VALUE": 0.033}
{"BINDER": "{C20 diacid-γGlu}-KCNTATCATQRLADFLRHSSNNLDPILPPTNVGSNTP-NH2 (disulfide 2-7 (inferred)) [PD164]", "ASSAY VALUE": 0.111}
{"BINDER": "{C20 diacid-γGlu}-KCNTATCATQRLADFLRHSSNNLHPILPPTNVGSNTP-NH2 (disulfide 2-7 (inferred)) [PD162]", "ASSAY VALUE": 0.035}
